Where these numbers come from: the supplement of paper PMC13380429

Catalogue of drug sensitivity score readings, one per entry.
- Tested on: Caco-2
- measurement-protocol: drug sensitivity score (DSS) for viability; higher = more toxic; extreme values may be limits of the assay
- experimental-conditions: 72 h
Give your answer as a number; write no unit.

Study these solved cases before continuing.
molecule="CCCCCCNC(=O)n1cc(F)c(=O)[nH]c1=O [carmofur]" readout="drug sensitivity score" value=2.2
molecule=CN1CCN(C(=O)c2nc3ccc(Cl)cc3[nH]2)CC1 readout="drug sensitivity score" value=0
molecule="CC1(C)O[C@H]2CC(=O)OC[C@]23[C@H]2CC[C@@]4(C)[C@H](c5ccoc5)OC(=O)[C@H]5O[C@]54[C@]2(C)C(=O)C[C@@H]13 [limonin]" readout="drug sensitivity score" value=0

Input: What measured drug sensitivity score goes with CC(C)[C@H](CO)Nc1nc(Nc2cccc(Cl)c2)c2ncn(C(C)C)c2n1 [purvalanol-A] ?
Output: 0.4

====

Some compounds, each annotated with its measured cell viability.
- System: Caco-2
- measurement-protocol: cell viability relative to DMSO; higher = less toxic
- experimental-conditions: 72 h; 1000 nM
Please state the figure in %; there is no need to write the unit.

Answered examples (2):
query_smiles=OCc1ccc(O[C@@H]2O[C@H](CO)[C@@H](O)[C@H](O)[C@H]2O)cc1 target_or_system=Caco-2 value=92
query_smiles=Oc1ccc2ccccc2c1 target_or_system=Caco-2 value=89.8

Shifting focus to the compound that follows.
Input: cell viability for C/C(=N\NC(=N)N)c1cc(NC(=O)CCCCCCCCC(=O)Nc2cc(/C(C)=N/NC(=N)N)cc(/C(C)=N/NC(=N)N)c2)cc(/C(C)=N/NC(=N)N)c1 ?
Output: 91.1

====

- System: Calu-3
- measurement-protocol: cell viability relative to DMSO; higher = less toxic
- experimental-conditions: 72 h; 1000 nM
readout: cell viability
Number first, unit second: that is the form wanted.

Check out these entries, answers already filled in.
compound=CN1CCN(C(=O)c2nc3ccc(Cl)cc3[nH]2)CC1 readout="cell viability" value=96.9%
compound="COc1ccc(-c2coc3cc(O)ccc3c2=O)cc1 [formononetin]" readout="cell viability" value=89.8%

Input: Returns the measured cell viability for the input compound. Input: C[C@@H]1CC[C@H]2C(C)(C)[C@H]3C[C@@]12CC[C@@]3(C)O [cedrol]
Output: 87.7%

Input: Consider the compound shown here: CCN(CC)CC1CCN(c2ncc3ncnc(Nc4ccc(F)c(Cl)c4)c3n2)CC1 [BIBU-1361] What is its recorded cell viability?
Output: 56.7%

Input: What value of cell viability has been recorded for this entry: N=C(N)NCCC[C@@H](NC(=O)[C@@H]1CCCN1C(=O)[C@@H]1CSSCCC(=O)N[C@@H](Cc2ccc(O)cc2)C(=O)N[C@@H](Cc2ccccc2)C(=O)N[C@@H](CCC(N)=O)C(=O)N[C@@H](CC(N)=O)C(=O)N1)C(=O)NCC(N)=O [desmopressin-acetate]
Output: 93.4%

Input: I'd like to know its cell viability. The compound in question is Oc1ccc2ccccc2c1 [beta-naphthol]
Output: 114%

Input: What value of cell viability has been reported for the following compound? COC(=O)[C@@H]1C[C@H](OC(C)=O)C(=O)[C@H]2[C@@]1(C)CC[C@H]1C(=O)O[C@H](c3ccoc3)C[C@]21C [salvinorin-A]
Output: 107%

Input: Looking for the measured cell viability of C[n+]1ccc(C(=O)NCc2ccccc2)cc1 [enisamium-iodide] , can you help?
Output: 108%

Input: Which cell viability is reported for this compound? CC(=O)SCCC(=O)N1[C@H](C)CCC[C@@H]1C(=O)O [methiopril]
Output: 97.5%

Input: Field request: cell viability | item: CN1C(CCl)Nc2cc(Cl)c(S(N)(=O)=O)cc2S1(=O)=O (stereo unspecified) [methyclothiazide]
Output: 105%

Input: For the compound CC(C)=CCC[C@](C)(O)[C@H]1CC[C@]2(C)[C@@H]1[C@H](O)C[C@@H]1[C@@]3(C)CC[C@H](O)C(C)(C)[C@@H]3[C@@H](O)C[C@]12C [hemomex-s] , what cell viability is on record?
Output: 105%
